assay: physchem; assay type: physicochemical; settings: 100% pg, organic solvent or mixture
MEASUREMENT_LABEL: solubility at 48 h (mM)
Answers are plain numbers, in mM.

[in] Given CC(C)(C)CC(C)(C)c1ccc(O)c(Cc2ccc(Cl)cc2Cl)c1 , state its recorded solubility at 48 h.
[out] 489

====

Assay: physchem
Type: physicochemical
Conditions: 70/30 pg/gly, organic solvent or mixture
Method: Solutions of clofoctol were prepared in different solvents: 100% PG, 85/15 PG/Gly, 70/30 PG/Gly, 50/50 PG/Gly. Solutions were sonicated then incubated at 65°C for 30 min, until complete dissolution of clofoctol. Then, the samples were incubated at RT under stirring for different times. For collection before analysis after determined incubation times, the solutions were centrifuged, then the supernatants were collected and diluted before LC-MS/MS analysis for clofoctol quantitation in samples.
MEASUREMENT_LABEL: solubility at 120 h (mM)
Answers are plain numbers, in mM.

[in] # lookup: solubility at 120 h of CC(C)(C)CC(C)(C)c1ccc(O)c(Cc2ccc(Cl)cc2Cl)c1
[out] 28.1

====

assay: physchem; format: physicochemical; conditions: 70/30 pg/gly, organic solvent or mixture
MEASUREMENT_LABEL: solubility at 48 h (mM)
Answers are plain numbers, in mM.

[in] Would you kindly share the measured solubility at 48 h for CC(C)(C)CC(C)(C)c1ccc(O)c(Cc2ccc(Cl)cc2Cl)c1 ?
[out] 29.8

====

Experiment: physchem
Type: physicochemical
Conditions: 50/50 pg/gly, organic solvent or mixture
Protocol: Solutions of clofoctol were prepared in different solvents: 100% PG, 85/15 PG/Gly, 70/30 PG/Gly, 50/50 PG/Gly. Solutions were sonicated then incubated at 65°C for 30 min, until complete dissolution of clofoctol. Then, the samples were incubated at RT under stirring for different times. For collection before analysis after determined incubation times, the solutions were centrifuged, then the supernatants were collected and diluted before LC-MS/MS analysis for clofoctol quantitation in samples.
MEASUREMENT_LABEL: solubility at 120 h

[in] Which solubility at 120 h is reported for this molecule? CC(C)(C)CC(C)(C)c1ccc(O)c(Cc2ccc(Cl)cc2Cl)c1
[out] 6.7 mM

====

experiment: physchem; assay type: physicochemical; settings: 100% pg, organic solvent or mixture
MEASUREMENT_LABEL: solubility at 120 h (mM)
One number for each entry, in mM.

[in] Need solubility at 120 h of CC(C)(C)CC(C)(C)c1ccc(O)c(Cc2ccc(Cl)cc2Cl)c1 [clofoctol] , thanks.
[out] 441

====

assay: in vivo; design: species or system Mice; settings: mouse, inhaled or intranasal
MEASUREMENT_LABEL: Tmax

[in] Using the record for CC(C)(C)CC(C)(C)c1ccc(O)c(Cc2ccc(Cl)cc2Cl)c1 , report its Tmax.
[out] ≤ 5 min
